test system: U937 cells; assay: Human U937 cellular necroptosis assay; assay type: cell-based; conditions: U-937; U937 cells stimulated with 25 ng/mL human TNFalpha and 25 μM z-VAD-FMK; 22 hr; Cell Titer-Glo viability
measurement name: IC50

INSERT INTO assay_data (compound, target_or_test_system, measurement) VALUES
  ('O=C(Nc1ccc(O)c(Cl)c1F)c1ncn(Cc2ccccc2)n1 [Example 31]', 'U937 cells', '1700 nM'),
  ('O=C(Nc1cccc2nn[nH]c12)c1ncn(Cc2ccccc2)n1 [Example 100]', 'U937 cells', '4140 nM'),
  ('N#Cc1cc(Cl)c(F)c(NC(=O)c2ncn(Cc3ccccc3)n2)c1 [Example 35]', 'U937 cells', '7290 nM'),
  ('N#Cc1cccc(Cn2cnc(C(=O)Nc3cccc(Cl)c3F)n2)c1 [Example 29]', 'U937 cells', '356 nM'),
  ('N#Cc1c2c(nn1Cc1ccccc1)C(=O)N(c1cccc(Cl)c1F)CC2 [Example 71]', 'U937 cells', '256 nM'),
  ('O=C(Nc1cc(CO)cc(Cl)c1F)c1ncn(Cc2ccccc2)n1 [Example 94]', 'U937 cells', '797 nM'),
  ('C[C@@H](c1cccc(C#N)c1)n1cnc(C(=O)Nc2cccc(Cl)c2F)n1 (single isomer, unassigned) [Example 56b]', 'U937 cells', '> 10000 nM'),
  ('O=C1c2nn(Cc3cccc(F)c3F)c(Cl)c2CCN1c1cccc(Cl)c1F [Example 1]', 'U937 cells', '34.2 nM'),
  ('Nc1c2c(nn1Cc1ccccc1)C(=O)N(c1cccc(Cl)c1F)CC2 [Example 60]', 'U937 cells', '1260 nM');

The measured values listed here are drawn from patent US11718612B2.
